ASSAY NAME: Population PK model of sorafenib and its N‐oxide metabolite in patients with AML
Type: in vivo, human
CONDITION SET: human, plasma, oral, CL, total clearance, median of 1,000 bootstraps
PARAMETER: clearance (mL/min)
Unit mL/min implied. Number only.

What the record says about "CNC(=O)c1cc(Oc2ccc(NC(=O)Nc3ccc(Cl)c(C(F)(F)F)c3)cc2)ccn1" : clearance is 237

###

ASSAY NAME: Population PK model of sorafenib and its N‐oxide metabolite in patients with AML
Format: in vivo, human
CONDITION SET: human, plasma, oral, fu, %fraction of unbound sorafenib, FOCE‐I estimate
PARAMETER: fraction unbound

What the record says about CNC(=O)c1cc(Oc2ccc(NC(=O)Nc3ccc(Cl)c(C(F)(F)F)c3)cc2)ccn1 [sorafenib] : fraction unbound is 0.0181
